Assay: Pharmacokinetic study (PK), i.v., CD-1 mice
Type: in vivo
Conditions: male, CD-1, in vivo, iv; mouse, i.v. 1 mg/kg, 0.5 h; read-out: Calc. Conc. (plasma)
Bridge positions count the residues as written; N and C are the ends. Square brackets hold non-standard residues; d marks the D form. Peptide text beside a SMILES is read from it. Lys(iPr) = CC(C)NCCCC[C@H](N)C(=O)O; Dab = NCC[C@H](N)C(=O)O
value_kind: level at 0.5 h (ng/mL)
Numbers only, in ng/mL.

For CC(C)NCCCC[C@@H]1NC(=O)[C@H](CCC(N)=O)NC(=O)[C@H](Cc2ccc(O)cc2)NC(=O)[C@@H]2CSSC[C@H](NC(=O)[C@H](C)NC(=O)[C@H](Cc3c[nH]cn3)NC(=O)[C@H](Cc3ccc(O)cc3)NC(=O)[C@@H]3CCCN3C(=O)[C@H]3CCCN3C1=O)C(=O)N[C@@H](CO)C(=O)N[C@@H](C)C(=O)N[C@H](Cc1ccc(O)cc1)C(=O)N[C@@H](CCN)C(=O)N[C@@H](CCCNC(=N)N)C(=O)N[C@@H](Cc1ccc(O)cc1)C(=O)N2 [Ex. 3] (cyclo(YHACSA[dY][Dab]RYCYQ[Lys(iPr)][dP]P); disulfide 4-11) the compound record lists level at 0.5 h as 442

----------
Experiment: Plasma stability, mouse plasma
Format: in vitro ADME
Conditions: 37° C., 1440 min, read-out: mouse pl. cpd left at 1440 min
Bridge positions count the residues as written; N and C are the ends. Square brackets hold non-standard residues; d marks the D form. Peptide text beside a SMILES is read from it. Lys(iPr) = CC(C)NCCCC[C@H](N)C(=O)O; Dab = NCC[C@H](N)C(=O)O
value_kind: remaining at 24 h, 10 μM (%)
Give bare numbers, in %.

// remaining at 24 h, 10 μM value for CC(C)NCCCC[C@@H]1NC(=O)[C@H](CCC(N)=O)NC(=O)[C@H](Cc2ccc(O)cc2)NC(=O)[C@@H]2CSSC[C@H](NC(=O)[C@H](C)NC(=O)[C@H](Cc3c[nH]cn3)NC(=O)[C@H](Cc3ccc(O)cc3)NC(=O)[C@@H]3CCCN3C(=O)[C@H]3CCCN3C1=O)C(=O)N[C@@H](CO)C(=O)N[C@@H](C)C(=O)N[C@H](Cc1ccc(O)cc1)C(=O)N[C@@H](CCN)C(=O)N[C@@H](CCCNC(=N)N)C(=O)N[C@@H](Cc1ccc(O)cc1)C(=O)N2 [Ex. 3] (cyclo(YHACSA[dY][Dab]RYCYQ[Lys(iPr)][dP]P); disulfide 4-11) : 98

----------
Test: Plasma protein binding
Format: in vitro ADME
Conditions: human plasma, ultrafiltration 10 kDa
Bridge positions count the residues as written; N and C are the ends. Square brackets hold non-standard residues; d marks the D form. Peptide text beside a SMILES is read from it. Lys(iPr) = CC(C)NCCCC[C@H](N)C(=O)O; Dab = NCC[C@H](N)C(=O)O
value_kind: fraction unbound at 1 h, 10 μM
Answers are plain numbers.

Documented fraction unbound at 1 h, 10 μM of CC(C)NCCCC[C@@H]1NC(=O)[C@H](CCC(N)=O)NC(=O)[C@H](Cc2ccc(O)cc2)NC(=O)[C@@H]2CSSC[C@H](NC(=O)[C@H](C)NC(=O)[C@H](Cc3c[nH]cn3)NC(=O)[C@H](Cc3ccc(O)cc3)NC(=O)[C@@H]3CCCN3C(=O)[C@H]3CCCN3C1=O)C(=O)N[C@@H](CO)C(=O)N[C@@H](C)C(=O)N[C@H](Cc1ccc(O)cc1)C(=O)N[C@@H](CCN)C(=O)N[C@@H](CCCNC(=N)N)C(=O)N[C@@H](Cc1ccc(O)cc1)C(=O)N2 [Ex. 3] (cyclo(YHACSA[dY][Dab]RYCYQ[Lys(iPr)][dP]P); disulfide 4-11) : 0.52
